// values below are reported pEC50
System: monocistronic NK5.1 HCV replicon in Huh7 cells
assay remarks: HCV replicon assay, monocistronic replicon cell line
Assay type: cell-based, hepatitis C virus
condition label: Hepatitis C virus, Huh-7; monocistronic NK5.1 HCV replicon in Huh7 cells; median value; read-out: Mono EC50 Median
pEC50: −log10 of the molar value.
property measured: pEC50

| molecule | property measured | modifier | measured number |
| --- | --- | --- | --- |
| Cc1cccnc1-c1noc(-c2cc(OCCc3ccccc3)ccc2O)n1 [Compound 273] | pEC50 | < | 4.72 |
| Cc1cccc(-c2n[nH]c(-c3c(F)cccc3Cl)n2)n1 [Compound 469] | pEC50 | < | 4.49 |
| Cc1ccccc1-c1nnc(-c2ccccc2[N+](=O)[O-])o1 [Compound 315] | pEC50 | < | 4.49 |
| Cc1cccc(-c2n[nH]c(-c3cc([N+](=O)[O-])ccc3O)n2)n1 [Compound 392] | pEC50 | < | 4.72 |
| Oc1ccc(O)c(-c2nc(-c3nccc4ccccc34)n[nH]2)c1 [Compound 381] | pEC50 | = | 5.07 |
| FC(F)(F)c1ccncc1-c1n[nH]c(-c2cccc3ccccc23)n1 [Compound 410] | pEC50 | = | 5.54 |
| COc1ccccc1-c1nnc(-c2cccs2)o1 [Compound 331] | pEC50 | < | 4.49 |
| COc1ccc(-c2nc(-c3ccoc3)no2)c(O)c1 [Compound 286] | pEC50 | = | 5.01 |
| COc1ccc(-c2nc(-c3ccc(C(F)(F)F)cn3)no2)c(O)c1OC [Compound 265] | pEC50 | = | 4.55 |

* * *

System: monocistronic NK5.1 HCV replicon in Huh7 cells
assay remarks: HCV replicon assay, monocistronic replicon cell line
Type: cell-based, hepatitis C virus
condition label: Hepatitis C virus, Huh-7; monocistronic NK5.1 HCV replicon in Huh7 cells; median value; read-out: Mono EC50 Median
// reported log10(EC50) for each item listed
property measured: log10(EC50) (log10 of the value in µM)

| compound | log10(EC50) |
| --- | --- |
| Cc1cccnc1-c1n[nH]c(-c2cc([N+](=O)[O-])ccc2O)n1 [Compound 442] | 0.90 |
| Oc1ccc2ccccc2c1-c1nc(-c2ccc(C(F)(F)F)cn2)no1 [Compound 221] | 0.68 |
| Cc1cccnc1-c1noc(-c2cc(N)ccc2O)n1 [Compound 270] | 1.44 |
| Oc1ccc(Br)cc1-c1nc(-c2ncccc2-c2ccccc2)no1 [Compound 228] | 0.34 |
| CC(C)(C)c1ccc(O)c(-c2nc(-c3ccccn3)n[nH]2)c1 [Compound 351] | 0.93 |
| Oc1ccc(Cl)cc1-c1nc(-c2ccccn2)n[nH]1 [Compound 354] | 0.68 |

* * *

System: monocistronic NK5.1 HCV replicon in Huh7 cells
assay remarks: HCV replicon assay, monocistronic replicon cell line
Assay type: cell-based, hepatitis C virus
condition label: Hepatitis C virus, Huh-7; monocistronic NK5.1 HCV replicon in Huh7 cells; median value; read-out: Mono EC50 Median
pEC50: −log10 of the molar value.

| compound | modifier | pEC50 |
| --- | --- | --- |
| Cc1cccnc1-c1noc(-c2cccc(C(C)C)c2O)n1 [Compound 300] | = | 5.82 |
| Fc1ccccc1-c1nc(-c2nccc3ccccc23)n[nH]1 [Compound 470] | = | 5.14 |
| CC(C)(C)c1ccc(O)c(-c2nc(-c3cnccc3C(F)(F)F)n[nH]2)c1 [Compound 411] | = | 5.00 |
| Cc1cccnc1-c1noc(-c2cc(O)ccc2OCc2ccccc2)n1 [Compound 267] | = | 4.80 |
| CCOc1ccc(-c2nc(-c3ncccc3C)no2)c(O)c1 [Compound 243] | = | 5.66 |
| Cc1cccc(-c2n[nH]c(-c3c(Cl)cccc3Cl)n2)n1 [Compound 467] | < | 4.49 |
| CCCOc1ccc(O)c(-c2nc(-c3ncccc3C)no2)c1 [Compound 272] | < | 4.49 |
| Oc1ccc(Br)cc1-c1nc(-c2ncccc2C(F)(F)F)no1 [Compound 292] | = | 5.82 |
| Cc1ccccc1-c1nnc(-c2ccco2)o1 [Compound 303, 2-Furan-2-yl-5-o-tolyl-[1,3,4]oxadiazole] | < | 4.49 |

* * *

Tested on: monocistronic NK5.1 HCV replicon in Huh7 cells
assay remarks: HCV replicon assay, monocistronic replicon cell line
Assay type: cell-based, hepatitis C virus
condition label: Hepatitis C virus, Huh-7; monocistronic NK5.1 HCV replicon in Huh7 cells; median value; read-out: Mono EC50 Median
property measured: EC50 (µM)

| molecule | modifier | measured number |
| --- | --- | --- |
| COc1cccc(-c2nc(-c3ncccc3Br)no2)c1O [Compound 257] | > | 32 |
| Fc1ccccc1-c1nnc(-c2c(Cl)cccc2Cl)o1 [Compound 335] | > | 32 |
| Cc1cccnc1-c1n[nH]c(-c2ccc(OCc3ccccc3)cc2O)n1 [Compound 447] | > | 10 |
| COc1cccc(-c2nc(-c3nccc4ccccc34)n[nH]2)c1O [Compound 378] | = | 16 |
| COc1cccc(-c2nc(-c3ncccc3-c3ccccc3)no2)c1O [Compound 230] | = | 9.8 |
| Oc1ccc2ccccc2c1-c1nnc(-c2ccccc2F)o1 [Compound 305] | > | 32 |
| Oc1ccc2ccccc2c1-c1nnc(-c2cccs2)o1 [Compound 308] | = | 26 |
| Cc1cccnc1-c1noc(-c2ccc(NCc3ccccc3)cc2O)n1 [Compound 288] | = | 0.8 |
| Cc1cccc(-c2n[nH]c(-c3cc(Cl)ccc3O)n2)n1 [Compound 395] | > | 19 |
| CCOc1ccc(O)c(-c2nc(-c3ncccc3C)no2)c1 [Compound 271] | = | 0.61 |
| Fc1ccccc1-c1nnc(-c2ccco2)o1 [Compound 336] | > | 32 |
| COc1ccc(O)c(-c2nc(-c3nccc4ccccc34)n[nH]2)c1 [Compound 370] | = | 2.9 |
| Cc1cccnc1-c1noc(-c2ccc(NC(=O)c3ccccc3)cc2O)n1 [Compound 289] | = | 6.1 |
| Cc1ccc(O)c(-c2nc(-c3cccc(C)n3)n[nH]2)c1 [Compound 400] | > | 19 |
| COc1ccc(O)c(-c2nc(-c3ccc(NC(C)=O)cn3)no2)c1 [Compound 262] | = | 19.2 |
| COc1ccc(-c2nc(-c3ncccc3Br)no2)c(O)c1 [Compound 259] | = | 2.5 |
| Oc1ccc2ccccc2c1-c1nc(-c2ccoc2)no1 [Compound 285] | = | 11 |
| Fc1ccccc1-c1nnc(-c2ncc(C(F)(F)F)cc2Cl)o1 [Compound 349] | > | 32 |
| Cc1cccnc1-c1n[nH]c(-c2cc(Br)ccc2O)n1 [Compound 449] | = | 2.3 |
| Oc1ccccc1-c1nnc(-c2ccccc2C(F)(F)F)o1 [Compound 320] | > | 32 |

* * *

pEC50 overview
Test system: monocistronic NK5.1 HCV replicon in Huh7 cells
assay remarks: HCV replicon assay, monocistronic replicon cell line
Format: cell-based, hepatitis C virus
condition label: Hepatitis C virus, Huh-7; monocistronic NK5.1 HCV replicon in Huh7 cells; median value; read-out: Mono EC50 Median
pEC50: −log10 of the molar value.

| smiles repr | modifier | pEC50 |
| --- | --- | --- |
| COc1ccc(O)c(-c2nc(-c3ncccc3OC)no2)c1 | = | 4.89 |
| Oc1ccccc1-c1nnc(-c2ncc(C(F)(F)F)cc2Cl)o1 | = | 4.77 |
| COc1ccccc1-c1nnc(-c2c(Cl)cccc2Cl)o1 | < | 4.49 |
| Oc1ccc(O)c(-c2nc(-c3ncccc3-c3ccccc3)no2)c1 | = | 5.66 |
| Fc1ccccc1-c1nc(-c2ccccn2)n[nH]1 | < | 4.72 |
| Cc1cccnc1-c1n[nH]c(-c2cc(Cl)ccc2O)n1 | = | 5.54 |
| Oc1ccccc1-c1nnc(-c2ccco2)o1 | < | 4.49 |
| CCOc1cccc(-c2nc(-c3nccc4ccccc34)n[nH]2)c1O | < | 4.72 |
| O=[N+]([O-])c1ccc(Cl)c(-c2nc(-c3ccc(C(F)(F)F)cn3)no2)c1 | = | 5.37 |

* * *

Consider the following compounds and their measured log10(EC50) readings.
Tested on: monocistronic NK5.1 HCV replicon in Huh7 cells
assay remarks: HCV replicon assay, monocistronic replicon cell line
Format: cell-based, hepatitis C virus
condition label: Hepatitis C virus, Huh-7, 72 h; table T3 (compounds 471-640); monocistronic replicon in Huh7 cells, 3 days incubation, HCV RNA/GAPDH RNA by TaqMan RT-PCR; read-out: Mono EC50 Median
property measured: log10(EC50) (log10 of the value in µM)

| smiles repr | log10(EC50) |
| --- | --- |
| Cc1cccnc1-c1n[nH]c(-c2cccc(Br)c2)n1 | 0.60 |
| Cc1ccc(O)c(-c2nc(-c3ncccc3Br)n[nH]2)c1 | 1.20 |
| Cc1cccnc1-c1nc(-c2ccccc2O)n(C)n1 | 0.84 |
| COc1ccc(O)c(-c2nc(-c3ncccc3C)nn2C)c1 | 1.23 |
| Cn1nc(-c2ccccn2)nc1-c1cc(Cl)ccc1O | 1.08 |
| Oc1ccc2ccccc2c1-c1nc(-c2ncccn2)n[nH]1 | 0.54 |
| COc1ccc(O)c(-c2ncn(-c3ncccc3C(F)(F)F)n2)c1 | 1.04 |
| Cc1cccnc1-c1n[nH]c(-c2cc(Br)cc(Br)c2O)n1 | 0.18 |
| Cc1cccnc1-c1nc(-c2cc([N+](=O)[O-])ccc2O)n(C)n1 | 0.45 |
| Oc1ccc(Cl)cc1-c1nc(-c2cnccn2)n[nH]1 | 0.76 |
| Cn1nc(-c2ccccn2)nc1-c1cc(Br)ccc1O | 1.18 |
| Oc1ccc(Br)cc1-c1nc(-c2ncccc2C(F)(F)F)n[nH]1 | -0.46 |
| Oc1ccc(Br)cc1-c1ncn(-c2ccccn2)n1 | 0.15 |
| CCN(CC)c1ccc(-c2nc(-c3ncccn3)n[nH]2)c(O)c1 | 1.26 |
| Cc1cccnc1-c1nc(-c2cc(F)ccc2O)n(C)n1 | 0.91 |
| Cn1nc(-c2ncccc2C(F)(F)F)nc1-c1cc(Br)ccc1O | 0.56 |
| Cc1cccnc1-c1n[nH]c(-c2cc(Cl)cc(Br)c2O)n1 | 0.34 |
| Cc1cccnc1-c1nc(-c2ccc3ccccc3c2O)n(C)n1 | 0.18 |
| Oc1ccc(Br)cc1-c1nc(-c2ncccn2)n[nH]1 | 0.77 |
| CCN(CC)c1ccc(-c2nc(-c3ncccc3Br)n[nH]2)c(O)c1 | 0.76 |
| COc1ccc(O)c(-c2ncn(-c3ccccn3)n2)c1 | 1.18 |
